Test system: SK-OV-3 ovarian
ASSAY_TEXT: NCI-60 one-dose screen, 48 h (100 = growth as untreated, 0 = no growth, -100 = all killed)
CONDITION_CONTEXT: 10 µM unless noted
About 83,000 compounds went through this panel and 20% of them were active in at least one assay; those are over-represented in the sample as a whole. The source made the active and inactive calls. Rule for the calls: active = growth percent below 10; inactive = the rest.
QUANTITY: growth

Query: Would you mind telling me what growth value was observed for CNC(=O)c1cc(Oc2ccc3c(c2)sc2nc(-c4cc(C(F)(F)F)cc(C(F)(F)F)c4)cn23)ccn1 ?
Response: 46.7% (inactive)

Query: Entry Cc1cc(N2CCN(CC(=O)Nc3ccc4c(ccn4Cc4ccccc4)c3)CC2)nc(N2CCOCC2)n1 : reported growth = ?
Response: 81.9% (inactive)

Query: Could you share which growth value was measured for Cc1nc([P+](c2ccccc2)(c2ccccc2)c2ccccc2)c(N2CCCCC2)o1 ?
Response: 20.6% (inactive)

Query: growth; subject: COc1cc(/C=C/C(=O)c2cc(OC)c(OC)c(OC)c2)ccc1Oc1nc2c(c(=O)n(C)c(=O)n2C)n1C
Response: 30.3% (inactive)

Query: Which growth is reported for this molecule? CCCCC#Cc1c(I)n(C2OC(CO[Si](C)(C)C(C)(C)C)C3OC(C)(C)OC32)c(=O)n(C(=O)c2ccccc2)c1=O (stereo not drawn)
Response: 106% (inactive)

Query: Which growth value is on record for Nc1nc2ccccc2c2c(=O)c3cc(Cl)ccc3sc12 ?
Response: 79.8% (inactive)

Query: Name the reported growth value associated with the molecule COC(=O)/C(CCC=C(C)C)=C1\[C@@H](OC(C)=O)C[C@@]2(C)[C@H]1C/C(=N/O)[C@H]1[C@@]3(C)CC/C(=N\O)[C@@H](C)[C@@H]3CC[C@@]12C
Response: 107% (inactive)

Query: Reported growth for COc1ccc(C(=O)C/C(=C\c2ccc(O)c(OC)c2)C(=O)NN)cc1 : what is it?
Response: 79.9% (inactive)
